The reported numbers originate from patent US20200031778A1.

procedureText: Log P by HPLC on reversed phase columns (EEC directive 79/831 Annex V.A8; methods [a], [b], [c])
Assay type: physicochemical
# LogP listing for each entry below

Example entries begin here.
- compound: "N#Cc1cncn1CC(=O)c1cnc(Oc2ccc(S(F)(F)(F)(F)F)cc2)cc1C(F)(F)F"
  result: "3.67^[a]"
- compound: "CC(C)(C)CC(O)(Cn1cncc1C#N)C1(F)CC1 (stereo not shown)"
  result: "2.44^[a]"
- compound: "C[Si](C)(C)C#CC(O)(Cn1cncc1C#N)C1(F)CC1 (stereo not shown)"
  result: "2.45^[a]"

// next entry
Query: Give a short answer stating reported LogP for CC1(C(O)(Cn2cncc2C#N)c2ccc(Cl)cc2F)CC1 (stereo not shown) .
Result: 2.68^[a]
